Recorded values, source patent US7196199B2.

Each entry below carries its recorded Ki.
- test-system: 5-HT1A receptor (Rattus norvegicus)
- Sequence (P19327 whole entry): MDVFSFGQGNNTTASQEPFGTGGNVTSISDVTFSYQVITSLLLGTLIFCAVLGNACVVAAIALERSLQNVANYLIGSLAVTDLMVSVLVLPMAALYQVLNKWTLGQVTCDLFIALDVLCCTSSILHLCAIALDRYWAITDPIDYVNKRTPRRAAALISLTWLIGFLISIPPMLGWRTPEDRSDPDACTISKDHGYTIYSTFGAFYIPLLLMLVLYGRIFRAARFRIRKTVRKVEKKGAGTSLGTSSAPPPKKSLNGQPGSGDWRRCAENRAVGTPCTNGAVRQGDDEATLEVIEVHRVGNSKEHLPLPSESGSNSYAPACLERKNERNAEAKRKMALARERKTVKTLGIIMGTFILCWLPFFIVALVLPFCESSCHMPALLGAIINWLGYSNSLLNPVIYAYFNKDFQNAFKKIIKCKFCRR
- assay-explanation: 5-HT1A receptor binding test
- run-parameters: rat hippocampus membrane, (3H)-8-OH-DPAT 2 nM; read-out: 5-HT1A receptor binding Ki value
Where a name gives a salt, the structure may show the parent alone.
attribute-measured: Ki (pM)

[[record]]
molecule = "CC(C)c1nnc(-c2cc3c(OC[C@@H](O)CN4CCC(c5ccc6c(c5)OCO6)CC4)cccc3o2)o1 [Example 138, hydrochloride]"
value_reported = 680

[[record]]
molecule = "Cc1nnc(-c2cc3c(OC[C@@H](O)CN4CCC(c5ccc(Cl)c(Cl)c5)CC4)cccc3o2)o1 [Example 88, hydrate]"
value_reported = 750

[[record]]
molecule = "OCc1nnc(-c2cc3c(OC[C@@H](O)CN4CCC(c5ccc(Cl)c(Cl)c5)CC4)cccc3o2)o1 [Example 136]"
value_reported = 370

[[record]]
molecule = "CON(C)C(=O)c1cc2c(OC[C@@H](O)CN3CCC(c4ccc5ccccc5c4)CC3)cccc2o1 [Example 6]"
value_reported = 2300

